Quick reference for melting point among some compounds
readout.type: melting point (°C)

{"compound": "CN1CCC(OC(c2ccc3ccccc3c2)c2cc(OC(F)(F)F)ccc2F)CC1.O=C(O)C(=O)O (stereo not drawn) [Example 28]", "readout.type": "melting point", "experimental.result": 105}
{"compound": "CN1CCC(OC(c2ccncc2)c2cc(OC(F)(F)F)ccc2F)CC1.O=C(O)C(=O)O.O=C(O)C(=O)O (stereo not drawn) [Example 6]", "readout.type": "melting point", "experimental.result": 61}
{"compound": "Cc1ccc(C(OC2CCN(C)CC2)c2ccccn2)c(F)c1.O=C(O)C(=O)O.O=C(O)C(=O)O (stereo not drawn) [Example 3]", "readout.type": "melting point", "experimental.result": 59}

###

Quick reference for melting point among some compounds

{"compound": "CN1CCC(OC(c2ccc(Cl)cc2)c2cccc(I)c2)CC1.O=C(O)C(=O)O (centres unmarked)", "melting point": "141 °C"}
{"compound": "CN1CCC(OC(c2ccccn2)c2cc(OC(F)(F)F)ccc2F)CC1.O=C(O)C(=O)O.O=C(O)C(=O)O (centres unmarked)", "melting point": "45 °C"}
{"compound": "CN1CCC(OC(c2ccc(Cl)cc2)c2ccc(Cl)cn2)CC1.O=C(O)C(=O)O (centres unmarked)", "melting point": "190 °C"}
{"compound": "Cc1ccc(C(OC2CCN(C)CC2)c2ccc3ccccc3c2)c(F)c1.O=C(O)C(=O)O (centres unmarked)", "melting point": "122 °C"}
{"compound": "Cc1ccc(C(OC2CCN(C)CC2)c2ccc(F)cn2)c(F)c1.O=C(O)C(=O)O (centres unmarked)", "melting point": "133 °C"}

###

# target.desc: human H4 receptor (Homo sapiens, UniProt Q9H3N8)
# Construct: expressed in transfected cells
# Sequence (Q9H3N8 whole entry): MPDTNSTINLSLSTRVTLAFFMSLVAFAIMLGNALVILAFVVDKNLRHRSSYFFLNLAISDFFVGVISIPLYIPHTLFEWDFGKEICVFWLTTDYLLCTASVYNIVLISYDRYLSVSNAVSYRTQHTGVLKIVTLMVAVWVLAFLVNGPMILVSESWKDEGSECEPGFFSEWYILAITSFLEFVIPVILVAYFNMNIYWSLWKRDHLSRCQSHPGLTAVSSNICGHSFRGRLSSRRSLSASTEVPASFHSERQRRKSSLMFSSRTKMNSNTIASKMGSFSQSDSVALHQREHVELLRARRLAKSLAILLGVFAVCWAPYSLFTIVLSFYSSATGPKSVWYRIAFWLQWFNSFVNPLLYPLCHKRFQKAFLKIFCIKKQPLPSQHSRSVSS
# experimental.details: [3H]Histamine binding assay on membranes of CHO cells stably expressing human H4 receptor
pKi: −log10 of the molar value. Counter-ions that a name gives are not always drawn.
Quick reference for pKi among some compounds

{"compound": "Cc1ccc(C(OC2CCN(C)CC2)c2ccc(Cl)cn2)c(O)c1.O=C(O)C(=O)O (centres unmarked) [Example 25, oxalate]", "pKi": "> 7.52"}
{"compound": "CN1CCC(OC(c2ccc(Cl)cc2)c2ccc(Cl)cn2)CC1.O=C(O)C(=O)O (centres unmarked) [Example 9, oxalate]", "pKi": "> 6.52"}
{"compound": "Cc1ccnc(C(OC2CCN(C)CC2)c2cc(OC(F)(F)F)ccc2F)c1.O=C(O)C(=O)O.O=C(O)C(=O)O (centres unmarked) [Example 8, dioxalate]", "pKi": "> 6.52"}
{"compound": "COc1cccc(C(OC2CCN(C)CC2)c2ccc(Cl)cn2)c1.O=C(O)C(=O)O (centres unmarked) [Example 12, oxalate]", "pKi": "> 6.00"}
{"compound": "CN1CCC(OC(c2cccc(C#CCCCCN)c2)c2ccc(Cl)cn2)CC1.O=C(O)C(=O)O (centres unmarked) [Example 18, oxalate]", "pKi": "> 7.52"}
{"compound": "CN1CCC(OC(c2ccccn2)c2cc(OC(F)(F)F)ccc2F)CC1.O=C(O)C(=O)O.O=C(O)C(=O)O (centres unmarked) [Example 1, dioxalate]", "pKi": "> 6.52"}
{"compound": "CN1CCC(OC(c2ccncc2)c2cc(OC(F)(F)F)ccc2F)CC1.O=C(O)C(=O)O.O=C(O)C(=O)O (centres unmarked) [Example 6, dioxalate]", "pKi": "> 6.52"}
{"compound": "CN1CCC(OC(c2ccc(Cl)cn2)c2cc(OC(F)(F)F)ccc2F)CC1.O=C(O)C(=O)O (centres unmarked) [Example 4, oxalate]", "pKi": "> 6.52"}
{"compound": "Cc1ccc(C(OC2CCN(C)CC2)c2cc(C(F)(F)F)ccn2)c(F)c1.O=C(O)C(=O)O (centres unmarked) [Example 14, oxalate]", "pKi": "> 6.52"}
{"compound": "CN1CCC(OC(c2ccc3ccccc3c2)c2cc(OC(F)(F)F)ccc2F)CC1.O=C(O)C(=O)O (centres unmarked) [Example 28, oxalate]", "pKi": "> 6.00"}
{"compound": "CN1CCC(OC(c2cccc(C#CCCCCN)c2)c2ccccn2)CC1 (centres unmarked) [Example 5, oxalate]", "pKi": "> 6.52"}
{"compound": "CN1CCC(OC(c2cccc(I)c2)c2ccccn2)CC1 (centres unmarked) [Example 37, oxalate]", "pKi": "> 6.00"}
{"compound": "CCOC(=O)NCCCCC#Cc1cccc(C(OC2CCN(C)CC2)c2ccccn2)c1.O=C(O)C(=O)O (centres unmarked) [Example 17, oxalate]", "pKi": "> 6.00"}
{"compound": "CN1CCC(OC(c2ccccc2F)c2cc(OC(F)(F)F)ccc2F)CC1.O=C(O)C(=O)O (centres unmarked) [Example 32, oxalate]", "pKi": "> 6.00"}
{"compound": "CN1CCC(OC(c2ccc(F)cn2)c2ccc(F)c(F)c2O)CC1 (centres unmarked)", "pKi": "> 6.00"}
{"compound": "Cc1ccc(C(OC2CCN(C)CC2)c2cc(F)ccn2)c(O)c1F (centres unmarked)", "pKi": "> 6.52"}
{"compound": "CN1CCC(OC(c2ccc(Cl)c(Cl)c2)c2cc(OC(F)(F)F)ccc2F)CC1.O=C(O)C(=O)O (centres unmarked) [Example 31, oxalate]", "pKi": "> 6.52"}
